ASSAY COMMENT: Neurotoxicity: acute toxicity by intracerebral administration
Design: species or system souris
CONDITION CONTEXT: mouse, in vivo, female SWISS OF1 mice, toxicity noted 7 days after administration, read-out: DL50 IC
MEASUREMENT NAME: LD50 at 168 h (µmol/kg)
A number alone suffices; assume µmol/kg.

Would you please look over these solved cases?
CC(=O)N(CC(O)CO)c1c(I)c(N(CC(O)CO)C(C)=O)c(I)c(N(CC(O)CO)C(C)=O)c1I (stereo not drawn) :: 4000
COCC(=O)Nc1c(I)c(N(CC(O)CO)C(C)=O)c(I)c(N(CC(O)CO)C(C)=O)c1I (stereo not drawn) :: 3300

# context switch: different molecule, same LD50 at 168 h
Using the record for CC(=O)N(CC(O)CO)c1c(I)c(NC(=O)C(C)O)c(I)c(N(CC(O)CO)C(C)=O)c1I (stereo not drawn) , state its measured LD50 at 168 h.
3500
